- System: IGROV-1
- ASSAY OVERVIEW: NCI tumour cell line growth inhibition, 48 h
The source made the active and inactive calls. Rule as the data show it: active = GI50 up to about 1.1 µM and inactive = higher.
I'd appreciate it if you could supply GI50 values for the items below.

In the examples that follow, each entry is paired with its recorded GI50.
O=C(O)c1ccc(C2=Nc3cccc4cccc(c34)N2)cc1
> 100 µM (inactive)
CCOC1=CP(=O)(OCC)CC(C)=C1Cl (stereo unspecified)
> 100 µM (inactive)
C#Cc1c(C)c(/C=C/C(C)=C/C=C/C(C)=C/C(=O)OC)n(C)c1C
> 100 µM (inactive)
OC1C2C=CCC1CCC2 (stereo unspecified)
> 100 µM (inactive)

Quick request: GI50 for each listed item, please.
1. COC1/C(=C\c2ccccc2I)c2ccccc2N1C(C)=O (stereo unspecified)
2. Cc1ccc(C(=O)/C(C#N)=C/Nc2c(C)n(C)n(-c3ccccc3)c2=O)cc1

Reply:
18.1 µM (inactive)
> 100 µM (inactive)

###

- Test system: OVCAR-5
- ASSAY OVERVIEW: NCI tumour cell line growth inhibition, 48 h
Active and inactive are the calls of the source. Rule as the data show it: active = GI50 up to about 1.1 µM and inactive = higher.
I'd appreciate it if you could supply GI50 values for the items below.

Example cases with answers are listed next.
COC(=O)[C@@]1(C)CCC[C@]2(C(=O)O)C3Cc4occc4[C@H](C)[C@@H]3CCC21 (stereo not given in full)
> 100 µM (inactive)
Cc1ccccc1C(=O)c1c(O)c2c(c(O)c1Br)CCCC2
20 µM (inactive)
CC(C)(C)/N=C1\C(=O)C2(C)CCC1C2(C)C (stereo not given)
> 100 µM (inactive)
Cn1c(=O)c2c(nc3sc4c(n32)C(=O)c2c(O)ccc(O)c2C4=O)n(C)c1=O
28 µM (inactive)

Hey, can you go through the list below and give me GI50 for every item?
1. C[N+](C)(CCNC(=O)c1cccc2cc3ccccc3nc12)Cc1ccc([N+](=O)[O-])s1
2. Cc1cc(S(=O)(=O)NC2=NNC(C)CN2)c(S)cc1Cl (stereo not given)

Reply:
["> 25 µM (inactive)", "93.3 µM (inactive)"]

###

- System: T47D
- ASSAY OVERVIEW: NCI tumour cell line growth inhibition, 48 h
Active and inactive are the calls of the source. Rule as the data show it: active = GI50 up to about 1.1 µM and inactive = higher.
I'd appreciate it if you could supply GI50 values for the items below.

CCCCc1cc2c(C)cc(=O)oc2c(O)c1O
21.7 µM (inactive)

Give me GI50 for each of these compounds, listed below.
1. COc1ccc(C(C)NNC(=O)c2cc[n+]([BH2-]C#N)cc2)c(OC)c1 (stereo not given)
2. COC(=O)/C(=C\C(=O)c1ccc(Br)cc1)NN=C(c1ccccc1)c1ccccc1
3. CCCCOC(=O)Nc1ccc(S(=O)(=O)Nc2ccccc2Cl)cc1
4. COc1ccc(-c2c(N)n(-c3cccc(C(=O)O)c3)c(=O)c3cc([N+](=O)[O-])ccc23)cc1
5. O=C(CN1CCCCC1)c1ccc2c(c1)Sc1ccccc1O2

Reply:
["> 100 µM (inactive)", "> 10 µM (inactive)", "26.5 µM (inactive)", "> 100 µM (inactive)", "22.8 µM (inactive)"]

Need GI50 for each of these compounds.
1. O=Cc1ccc2ccocc1-2
2. CN(CC(=O)Nc1ccccc1C(=O)O)c1ccccc1
3. O=C(NCCCNCCN1C(=O)c2cccc3cc([N+](=O)[O-])cc(c23)C1=O)c1cc(-c2ccccc2)nc2ccccc12
4. COc1ccc2nc(C)cc(NCCCCCCCCCNc3cc(C)nc4ccc(OC)cc34)c2c1

Reply:
> 100 µM (inactive)
> 100 µM (inactive)
8.07 µM (inactive)
1.73 µM (inactive)
